System: ERK8;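 further: KINOMEscan kinase panel screen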
Construct: gene MAPK15
settings: concentration: 1 μM, replicates: in singlicate; n = 1
# %Inh listing for each entry below
measured.quantity: %Inh

compound=CS(=O)(=O)Cc1ccc(Nc2nccc(-c3c(-c4cccc(NC(=O)C5CCCCC5)c4)nn4ncccc34)n2)cc1 measured_quantity=%Inh experimental_result=0%
compound=COc1ccc(Nc2nccc(-c3ccc(NC(=O)c4cc5cc(F)ccc5[nH]4)cc3)n2)cc1 measured_quantity=%Inh experimental_result=0%
compound=O=C(Nc1n[nH]c2nc(-c3cccs3)c(Br)cc12)C1CCCC1 measured_quantity=%Inh experimental_result=61%
compound=CCn1c(-c2ccccc2)nc2cnccc21 measured_quantity=%Inh experimental_result=23%
compound=O=C(Nc1n[nH]c2nc(-c3cccs3)c(Br)cc12)C1CC1 measured_quantity=%Inh experimental_result=87%
compound=Cc1ccc(NC(=O)Nc2ccc(Cl)cc2)cc1-c1ccc(C(=O)Nc2ccncc2)cc1 measured_quantity=%Inh experimental_result=0%
compound=O=C1NC(=O)C(c2ccc(Cl)cc2)=C1Nc1ccc(O)cc1 measured_quantity=%Inh experimental_result=29%
compound="O=C(Nc1n[nH]c2nc(-c3ccco3)c(Br)cc12)C1CCN(Cc2ccccc2)C1.O=C(O)[C@H](O)[C@@H](O)C(=O)O (centres unmarked)" measured_quantity=%Inh experimental_result=2%
compound=Fc1ccc(-c2nc[nH]c2-c2ccncc2)cc1 measured_quantity=%Inh experimental_result=4%
compound=Cc1c(Cn2c3ccccc3n3c(=O)cc(N4CCOCC4)nc23)cccc1C(F)(F)F measured_quantity=%Inh experimental_result=26%
compound=CS(=O)(=O)CCNCc1nc(-c2ccc3ncnc(Nc4ccc(OCc5ccccc5)c(Cl)c4)c3c2)cs1.Cl measured_quantity=%Inh experimental_result=0%
compound=O=C(Nc1n[nH]c2cc(-c3ccsc3)ccc12)C1CC1 measured_quantity=%Inh experimental_result=92.4%
compound=Cc1ccc(NC(=O)Nc2ccccc2)cc1-c1ccc(C(=O)Nc2ccncc2)cc1 measured_quantity=%Inh experimental_result=0%
compound=Cl.Cl.Cl.N#Cc1ccc(CCNc2nccc(-c3cccc(CN4CCNCC4)c3)n2)cc1 measured_quantity=%Inh experimental_result=28%
compound=Cc1ccc(NC(=O)Nc2ccc(Cl)c(C(F)(F)F)c2)cc1-c1ccc(C(=O)Nc2ccncc2)cc1 measured_quantity=%Inh experimental_result=0%
compound=CNc1nc(-c2ccc3c(N)n[nH]c3c2)cc(N2C[C@@H](C(=O)Nc3ccccc3)CC[C@H]2C)n1 measured_quantity=%Inh experimental_result=0%
compound=Nc1nccc(-c2c(-c3ccc(F)cc3)ncn2C2CCN(Cc3ccccc3)CC2)n1 measured_quantity=%Inh experimental_result=0%
